# Test system: U2OS
# EXPERIMENT NOTES: cell viability relative to DMSO; higher = less toxic
# CONDITION PARAMETERS: 72 h; 1000 nM
EXPERIMENTAL ENDPOINT: cell viability

Task: What value of cell viability has been reported for the following compound? CCS(=O)(=O)c1cccc(-c2cc(C(=O)NC3CCN(C)CC3)c(C)c3[nH]c4ncc(C)cc4c23)c1
Output: 73.6%

Task: What value of cell viability has been reported for the following compound? CO[C@H]1CC[C@H](N2C(=O)CNc3ncc(-c4ccc(C(C)(C)O)nc4)nc32)CC1
Output: 97.7%

Task: What value of cell viability has been reported for the following compound? CC(C)C(=O)c1ccc(O)c(O)c1
Output: 97.3%

Task: What value of cell viability has been reported for the following compound? NCCCCCCCCCCNS(=O)(=O)c1cccc2c(Cl)cccc12
Output: 99.8%

Task: What value of cell viability has been reported for the following compound? O=C(O)c1cc2cccc([N+](=O)[O-])c2[nH]1
Output: 102%

Task: What value of cell viability has been reported for the following compound? CCCSc1nc(N[C@@H]2C[C@H]2c2ccc(F)c(F)c2)c2nnn([C@@H]3C[C@H](OCCO)[C@@H](O)[C@H]3O)c2n1
Output: 103%

Task: What value of cell viability has been reported for the following compound? N#Cc1cc(NC(=O)C(=O)O)c(Cl)c(NC(=O)C(=O)O)c1 [lodoxamide]
Output: 102%

Task: What value of cell viability has been reported for the following compound? Nc1nc(Nc2ccc(S(N)(=O)=O)cc2)nn1C(=O)c1c(F)cccc1F
Output: 104%

Task: What value of cell viability has been reported for the following compound? c1nc2c(NC3CCCCC3)nc(Nc3ccc(N4CCOCC4)cc3)nc2[nH]1
Output: 63.6%

Task: What value of cell viability has been reported for the following compound? Oc1ccc([C@H]2COc3cc(O)ccc3C2)cc1
Output: 102%

Task: What value of cell viability has been reported for the following compound? Cc1c(CC(C)(C)C(=O)O)n(Cc2ccc(Cl)cc2)c2ccc(F)cc12
Output: 96.4%

Task: What value of cell viability has been reported for the following compound? O=C(O)c1cc([N+](=O)[O-])ccc1NCCCc1ccccc1
Output: 96.4%

Task: What value of cell viability has been reported for the following compound? CCCCCCCCCCCCCCCCOc1nc2ccc(C)cc2c(=O)o1
Output: 99.7%

Task: What value of cell viability has been reported for the following compound? O=C(O)c1cc2ccccc2s1
Output: 100%

Task: What value of cell viability has been reported for the following compound? CCOCCn1c(N2CCCN(C)CC2)nc2ccccc21
Output: 98.4%

Task: What value of cell viability has been reported for the following compound? O=C(O)C[CH2][Ge](=[O])[O][Ge](=[O])[CH2]CC(=O)O
Output: 97.1%

Task: What value of cell viability has been reported for the following compound? OC[C@H]1O[C@@H](c2ccc(Cl)c(Cc3ccc(O[C@H]4CCOC4)cc3)c2)[C@H](O)[C@@H](O)[C@@H]1O
Output: 96.7%

Task: What value of cell viability has been reported for the following compound? COc1ccc([C@@H]2CC(=O)c3c(O)cc(O[C@@H]4O[C@H](CO[C@@H]5O[C@@H](C)[C@H](O)[C@@H](O)[C@H]5O)[C@@H](O)[C@H](O)[C@H]4O)cc3O2)cc1O
Output: 99.7%

* * *

# Tested on: Calu-3
# EXPERIMENT NOTES: cell viability relative to DMSO; higher = less toxic
# CONDITION PARAMETERS: 72 h; 10000 nM
Exercise: for every item that follows, state its recorded cell viability.
The reply should be a number in %, with the unit left off.

Task: What value of cell viability has been reported for the following molecule? CCCCCn1cc(C(=O)NC23CC4CC(CC(C4)C2)C3)c(=O)c2cc(-c3ccccc3)ccc21
Output: 97

Task: What value of cell viability has been reported for the following molecule? CC(C)C[C@@H](C=O)NC(=O)[C@H](CC(C)C)NC(=O)[C@H](CC(C)C)NC(=O)OCc1ccccc1
Output: 3.7

Task: What value of cell viability has been reported for the following molecule? FC(F)(F)c1ccccc1-c1cc(C(F)(F)F)c2[nH]c(C3=NOC4(CCCCC4)C3)nc2c1
Output: 97.7

Task: What value of cell viability has been reported for the following molecule? O=C1C2CCN(CC2)C1(CO)CO
Output: 95.7

* * *

# Test system: Caco-2
# EXPERIMENT NOTES: cell viability relative to DMSO; higher = less toxic
# CONDITION PARAMETERS: 72 h; 1 nM
EXPERIMENTAL ENDPOINT: cell viability (%)
The reply should be a number in %, with the unit left off.

Task: What value of cell viability on Caco-2 does CC(=O)/N=c1/[nH]c(C)c(-c2ccc(Cl)c(S(=O)(=O)NCCO)c2)s1 have?
Output: 94

Task: What value of cell viability on Caco-2 does COc1cccc(OC)c1-c1ccc(C[C@H](NC(=O)c2c(Cl)cccc2Cl)C(=O)O)cc1 have?
Output: 85.9

Task: What value of cell viability on Caco-2 does CNC(=O)c1cc(COc2nnc(Nc3ccc(Cl)cc3)c3ccoc23)ccn1 have?
Output: 96.6

Task: What value of cell viability on Caco-2 does COC1=C2C[C@@H](C)C[C@H](OC)[C@H](O)[C@@H](C)/C=C(\C)[C@H](OC(N)=O)[C@@H](OC)/C=C\C=C(/C)C(=O)NC(=CC1=O)C2=O have?
Output: 106

Task: What value of cell viability on Caco-2 does COc1ccc(-c2nc(C(=O)N3CCN(C)CC3)sc2-c2ccc(OC)cc2)cc1 have?
Output: 99.2

Task: What value of cell viability on Caco-2 does O=C(NCc1ccc2c(c1)OCO2)c1c(Cl)cccc1Cl have?
Output: 93

Task: What value of cell viability on Caco-2 does COc1cc(C(=O)NS(=O)(=O)c2ccccc2C)ccc1Cc1cn(C)c2ccc(NC(=O)OC3CCCC3)cc12 have?
Output: 92.3

Task: What value of cell viability on Caco-2 does O=C(O)C(=O)Nc1cccc(-c2nnn[nH]2)c1 have?
Output: 100

Task: What value of cell viability on Caco-2 does CC(C)c1cc(CNc2nc(Nc3cc(C4CC4)[nH]n3)cc(N3CCN(C)CC3)n2)on1 have?
Output: 111

Task: What value of cell viability on Caco-2 does CCC(=O)c1ccc(OCC(O)CN2CCN(c3ccccc3)CC2)cc1 (configuration not stated) have?
Output: 96.8

Task: What value of cell viability on Caco-2 does CNC[C@@H]1CC[C@@H](N)[C@@H](O[C@H]2[C@H](O)[C@@H](O[C@H]3OC[C@](C)(O)[C@H](NC)[C@H]3O)[C@H](N)C[C@@H]2N)O1 have?
Output: 98.4

Task: What value of cell viability on Caco-2 does O=S(=O)(c1cccc2c(Cl)cccc12)N1CCCNCC1 have?
Output: 94.5

Task: What value of cell viability on Caco-2 does O=C1OC(CN2CCOCC2)CN1/N=C/c1ccc([N+](=O)[O-])o1 (configuration not stated) have?
Output: 96.5

Task: What value of cell viability on Caco-2 does Cc1ccc(S(=O)(=O)/C=C/C#N)cc1 have?
Output: 92.8

Task: What value of cell viability on Caco-2 does OCCN(CCO)c1nc(N2CCCCC2)c2nc(N(CCO)CCO)nc(N3CCCCC3)c2n1 have?
Output: 114

Task: What value of cell viability on Caco-2 does COc1ccc(-c2cc3c(C)nc(N)nc3n([C@H]3CC[C@H](OCCO)CC3)c2=O)cn1 have?
Output: 92.5

Task: What value of cell viability on Caco-2 does NCCOB(c1ccccc1)c1ccccc1 have?
Output: 91

* * *

Exercise: for every item that follows, state its recorded drug sensitivity score.
# Tested on: Calu-3
# EXPERIMENT NOTES: drug sensitivity score (DSS) for viability; higher = more toxic; extreme values may be limits of the assay
# CONDITION PARAMETERS: 72 h
Form field (numeric): enter value without unit.

Task: What value of drug sensitivity score has been reported for the following compound? C[C@@H](NCCCc1cccc(C(F)(F)F)c1)c1cccc2ccccc12
Output: 5.3

Task: What value of drug sensitivity score has been reported for the following compound? CC(C)CC(NC(=O)OCC1c2ccccc2-c2ccccc21)C(=O)O (stereo in doubt)
Output: 0

Task: What value of drug sensitivity score has been reported for the following compound? CC(C)NCCCn1c(Sc2cc3c(cc2I)OCO3)nc2c(N)ncnc21
Output: 8.5

Task: What value of drug sensitivity score has been reported for the following compound? O=C(c1cccc(Cl)c1F)N1CCN(Cc2cccc(Nc3nccs3)n2)CC1
Output: 0

Task: What value of drug sensitivity score has been reported for the following compound? CCCc1ccc(C(=O)O)cc1
Output: 0

Task: What value of drug sensitivity score has been reported for the following compound? c1ccc2c(c1)OC[C@H](CNCCCOc1ccc3c(c1)OCO3)O2
Output: 0

Task: What value of drug sensitivity score has been reported for the following compound? OC(CCN1CCCCC1)(c1ccccc1)c1ccccc1
Output: 0

Task: What value of drug sensitivity score has been reported for the following compound? CCc1cc(Cl)c(OC)c(C(=O)NC[C@@H]2CCCN2CC)c1O [eticlopride]
Output: 0

Task: What value of drug sensitivity score has been reported for the following compound? CCOC(=O)c1ncc2[nH]c3cccc(OC(C)C)c3c2c1C
Output: 0.8

Task: What value of drug sensitivity score has been reported for the following compound? c1coc(CNc2ncnc3[nH]cnc23)c1
Output: 0

Task: What value of drug sensitivity score has been reported for the following compound? CN(C)CCCC1(c2ccc(F)cc2)OCc2cc(C#N)ccc21 (stereo not given)
Output: 0

Task: What value of drug sensitivity score has been reported for the following compound? CC(=O)c1ccc2c(c1)C(=O)C1(CC1)O2
Output: 0

Task: What value of drug sensitivity score has been reported for the following compound? NCC(=O)N[C@@H](CCC(N)=O)C(=O)O
Output: 0

Task: What value of drug sensitivity score has been reported for the following compound? CNC(=O)c1ccc2c(c1)S(=O)(=O)c1ccccc1C2=O [BW-616U]
Output: 0

Task: What value of drug sensitivity score has been reported for the following compound? NCCOB(c1ccccc1)c1ccccc1
Output: 0

Task: What value of drug sensitivity score has been reported for the following compound? CC(C)(S)C(N)C(=O)O (stereo in doubt) [penicillamine-(racemic)]
Output: 0

Task: What value of drug sensitivity score has been reported for the following compound? CCOc1ccc(C[C@H]2NC(=O)CCSSC[C@@H](C(=O)N3CCC[C@H]3C(=O)N[C@@H](CCCN)C(=O)NCC(N)=O)NC(=O)[C@H](CC(N)=O)NC(=O)[C@H]([C@@H](C)O)NC(=O)[C@H]([C@@H](C)CC)NC2=O)cc1
Output: 0

Task: What value of drug sensitivity score has been reported for the following compound? O=C(CN1CCN(C(=O)c2ccco2)CC1)Nc1cc(C(F)(F)F)ccc1Cl
Output: 0

Task: What value of drug sensitivity score has been reported for the following compound? COc1cc(C(=O)NS(=O)(=O)c2ccccc2C)ccc1Cc1cn(C)c2ccc(NC(=O)OC3CCCC3)cc12
Output: 0

Task: What value of drug sensitivity score has been reported for the following compound? NCCCS(=O)(=O)O [tramiprosate]
Output: 0
